Assay: physchem
Settings: pH 1.2 aqueous buffer, 37 °C, pH 1.2, simulated gastric fluid, thermodynamic from solid

molecule	output_unit	solubility at 24 h
C#CCOc1ccc(/C=C/C(=O)Nc2ccccc2C(=O)O)cc1OC [Free form]	µg/mL	4

----------
Assay: physchem
Conditions: pH 4.5 aqueous buffer, 37 °C, thermodynamic from solid, 24 h Solubility, pH 4.5 medium, 24 h
Counter-ions that a name gives are not always drawn.

compound	solubility at 24 h (µg/mL)
C#CCOc1ccc(/C=C/C(=O)Nc2ccccc2C(=O)O)cc1OC [Ethanolamine salt]	5

----------
Experiment: Thermogravimetric Analysis (TGA) weight loss
Assay type: physicochemical
Conditions: from r.t. to 120° C.
Structures can show the parent of a compound that is named as a salt.

compound	Weight loss by TGA [% from r.t. to]
C#CCOc1ccc(/C=C/C(=O)Nc2ccccc2C(=O)O)cc1OC.N [Ammonium salt]	8.94
C#CCOc1ccc(/C=C/C(=O)Nc2ccccc2C(=O)O)cc1OC [Free form]	1.83
C#CCOc1ccc(/C=C/C(=O)Nc2ccccc2C(=O)O)cc1OC.CC(C)(C)N [tert-Butylamine (TBA) salt]	0.94
C#CCOc1ccc(/C=C/C(=O)Nc2ccccc2C(=O)[O-])cc1OC.[K+] [Potassium salt]	5.34
C#CCOc1ccc(/C=C/C(=O)Nc2ccccc2C(=O)O)cc1OC.NC(CO)(CO)CO [Tris salt]	0.65
C#CCOc1ccc(/C=C/C(=O)Nc2ccccc2C(=O)O)cc1OC [Ethanolamine salt]	0.10

----------
Assay: physchem
Details: FaSSIF, 37 °C, pH 6.5, fassif, thermodynamic from solid
reported_metric: solubility at 1 h (µg/mL)

compound	recorded_number
C#CCOc1ccc(/C=C/C(=O)Nc2ccccc2C(=O)O)cc1OC [Free form]	312

----------
Assay: Oral pharmacokinetic study in Sprague-Dawley rats
Conditions: rat, single oral dose 20 mg/kg, plasma; extrapolated area under the curve

compound	AUCInf [µg·h/mL]
C#CCOc1ccc(/C=C/C(=O)Nc2ccccc2C(=O)O)cc1OC.CC(C)(C)N [tert-Butylamine (TBA) salt]	292.817
C#CCOc1ccc(/C=C/C(=O)Nc2ccccc2C(=O)O)cc1OC.NC(CO)(CO)CO [Tris salt]	250.596
C#CCOc1ccc(/C=C/C(=O)Nc2ccccc2C(=O)O)cc1OC.N [Ammonium salt]	317.034
C#CCOc1ccc(/C=C/C(=O)Nc2ccccc2C(=O)[O-])cc1OC.[K+] [Potassium salt]	248.674

----------
Test: Thermogravimetric Analysis (TGA) weight loss
Format: physicochemical
Conditions: from r.t. to 350° C. (or to decomposition if lower)
Counter-ions that a name gives are not always drawn.
Quick list: Total weight loss by TGA per entry.

compound	Total weight loss by TGA, % total weight
C#CCOc1ccc(/C=C/C(=O)Nc2ccccc2C(=O)[O-])cc1OC.[K+] [Potassium salt]	6.42
C#CCOc1ccc(/C=C/C(=O)Nc2ccccc2C(=O)O)cc1OC.N [Ammonium salt]	11.55
C#CCOc1ccc(/C=C/C(=O)Nc2ccccc2C(=O)O)cc1OC.NC(CO)(CO)CO [Tris salt]	0.85
C#CCOc1ccc(/C=C/C(=O)Nc2ccccc2C(=O)O)cc1OC [Free form]	1.83
C#CCOc1ccc(/C=C/C(=O)Nc2ccccc2C(=O)O)cc1OC.CC(C)(C)N [tert-Butylamine (TBA) salt]	7.85
C#CCOc1ccc(/C=C/C(=O)Nc2ccccc2C(=O)O)cc1OC [Ethanolamine salt]	0.10
